tested system: Aurora kinase A (Homo sapiens)
Sequence (whole entry): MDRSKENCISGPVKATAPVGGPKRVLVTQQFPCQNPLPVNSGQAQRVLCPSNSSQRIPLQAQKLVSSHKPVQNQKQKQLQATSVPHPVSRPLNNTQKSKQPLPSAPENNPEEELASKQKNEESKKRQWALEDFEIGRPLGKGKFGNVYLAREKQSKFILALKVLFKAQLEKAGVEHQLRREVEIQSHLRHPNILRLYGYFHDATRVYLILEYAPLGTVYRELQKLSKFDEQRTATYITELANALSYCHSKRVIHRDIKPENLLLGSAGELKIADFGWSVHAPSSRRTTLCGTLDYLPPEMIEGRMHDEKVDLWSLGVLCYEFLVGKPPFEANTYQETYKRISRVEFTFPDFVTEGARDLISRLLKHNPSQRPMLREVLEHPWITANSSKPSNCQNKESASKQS
applied conditions: Compound concentration 20.0 uM
Description: Thermal Shift Assay. Domain: start/stop: E122-S403
ΔTm overview
Kindly answer with a numeric value in °C, unit omitted.

{"columns": ["compound", "reported value"],
 "data": [
  ["COc1ccc(-c2ccc3c(c2)COC3=O)n2nc(C3(C(=O)OCC(C)C)CC3)nc12", -1.67],
  ["COCc1nc(C(F)(F)F)[nH]c1-c1cc(C(=O)N2CC(c3ccc(C#N)cc3)C2)c(C)cc1C", -2.54],
  ["Cc1ncsc1-c1ccc(CNC(=O)[C@@H]2C[C@@H](O)CN2C(=O)[C@@H](NC(=O)COCC(C)(COCCOCCOCCNC(=O)C[C@@H]2N=C(c3ccc(Cl)cc3)c3c(sc(C)c3C)-n3c(C)nnc32)COCCOCCOCCNC(=O)C[C@@H]2N=C(c3ccc(Cl)cc3)c3c(sc(C)c3C)-n3c(C)nnc32)C(C)(C)C)cc1", -4.07]
]}

Note to self: ΔTm of "CN(Cc1ccccc1)c1ccc2cc(C(=O)O)c(=O)oc2c1" with Aurora kinase A (Homo sapiens) was -1.09

Note to self: ΔTm of "CC(C)C[C@@H](C=O)NC(=O)[C@@H](NS(=O)(=O)c1ccc(F)cc1)C(C)C" with Aurora kinase A (Homo sapiens) was -1.2

Note to self: ΔTm of "CCn1ncc2c(NC3CCOCC3)c(-c3nnc(Cc4sc(C)nc4C)o3)cnc21" with Aurora kinase A (Homo sapiens) was -2.35

Note to self: ΔTm of CN(C)CC(c1ccc(O)cc1)C1(O)CCCCC1 (configuration not stated) with Aurora kinase A (Homo sapiens) was -1.27

###

tested system: Glycogen synthase kinase-3 beta (Homo sapiens) (UniProt P49841)
Sequence (P49841 whole entry, looked up): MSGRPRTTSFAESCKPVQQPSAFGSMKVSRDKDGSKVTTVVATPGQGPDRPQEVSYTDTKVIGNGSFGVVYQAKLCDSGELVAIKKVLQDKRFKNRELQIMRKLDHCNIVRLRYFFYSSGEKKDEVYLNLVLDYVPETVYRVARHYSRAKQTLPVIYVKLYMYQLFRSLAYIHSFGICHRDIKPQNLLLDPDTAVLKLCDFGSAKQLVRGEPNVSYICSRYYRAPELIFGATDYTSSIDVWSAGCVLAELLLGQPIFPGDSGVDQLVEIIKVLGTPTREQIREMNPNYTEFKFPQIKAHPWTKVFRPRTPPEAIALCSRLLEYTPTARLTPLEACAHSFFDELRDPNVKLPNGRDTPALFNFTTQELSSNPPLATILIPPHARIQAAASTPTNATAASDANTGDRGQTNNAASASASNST
applied conditions: Compound concentration 20.0 uM
Description: Thermal Shift Assay. Domain: start/stop: M26-R383
Threshold check on ΔTm: strictly below -0.2 °C is YES; on or above -0.2 °C is NO.

Below, 4 compounds whose answers are already recorded.
{"columns": ["compound", "label"],
 "data": [
  ["CC(c1cccc2ccccc12)n1cnc2c(=O)[nH]c(Cc3ccccc3)nc21 (configuration not stated)", "YES"],
  ["CC(=O)C(=Cc1cc(O)c(O)c([N+](=O)[O-])c1)C(C)=O", "YES"],
  ["CC(C)C(=O)c1c(C(C)C)nn2ccccc12", "YES"],
  ["COc1c(CN)cc(CN)cc1OCCCN1Cc2ccccc2C1", "NO"]
]}

Okay, next one:
INPUT: Answer whether the compound "O=C(O)Cn1nnc(-c2ccc(CN(CCCCOc3ccc(CN4CCCC4)cc3)CCc3ccccc3)cc2)n1" has ΔTm strictly less than -0.2 °C
OUTPUT: YES
